Molecular target: porcine pancreatic elastase (PPE) (Sus scrofa)
Sequence (P00772 27-266): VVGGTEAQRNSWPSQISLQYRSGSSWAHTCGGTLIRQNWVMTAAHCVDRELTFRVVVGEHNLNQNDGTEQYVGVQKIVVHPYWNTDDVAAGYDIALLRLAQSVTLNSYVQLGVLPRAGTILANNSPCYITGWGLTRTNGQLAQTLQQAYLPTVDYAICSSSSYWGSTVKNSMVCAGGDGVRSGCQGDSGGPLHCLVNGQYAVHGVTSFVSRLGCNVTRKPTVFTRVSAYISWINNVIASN
parameter: IC50

# molecule, endpoint result
rows = [
    ("CC(C)(C)C(=O)Oc1ccc(S(=O)(=O)Nc2ccccc2C(=O)NCC(=O)O)cc1 [sivelestat]", "3.08 µM"),
]
